# STUDY SYSTEM: TRKA (Homo sapiens (Human), UniProt P04629)
# Sequence (P04629 441-796): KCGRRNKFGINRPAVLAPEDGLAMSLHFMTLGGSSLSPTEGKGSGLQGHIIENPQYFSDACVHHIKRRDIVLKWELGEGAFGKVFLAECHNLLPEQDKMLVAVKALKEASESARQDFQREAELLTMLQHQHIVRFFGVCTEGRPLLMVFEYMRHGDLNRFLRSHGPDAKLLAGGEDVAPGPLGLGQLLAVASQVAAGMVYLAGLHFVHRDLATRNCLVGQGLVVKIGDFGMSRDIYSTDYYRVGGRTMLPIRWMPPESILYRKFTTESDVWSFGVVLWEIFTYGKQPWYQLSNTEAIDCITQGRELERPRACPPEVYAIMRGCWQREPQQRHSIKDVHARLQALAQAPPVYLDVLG
# RUN DESCRIPTION: Isolated TRK enzyme assay (HTRF KinEASE-TK), TRKA
# Format: biochemical
# CONDITION LABEL: read-out: Trka enzyme (IC50)
MEASUREMENT LABEL: IC50 (nM)

Completed entries (count: 4):
The reported value for CC(C)n1cc(C(=O)c2cncc(NC(=O)Cc3cccc(C(F)(F)F)c3)c2)c2cnc(N)nc21 [Example 245] in terms of IC50 is 4.7

The recorded IC50 for Cc1cc(C(F)(F)F)nn1CC(=O)Nc1cncc(C(=O)c2cn(C(C)(CO)CO)c3ncncc23)c1 [Example 234] is 84.9

// recorded IC50 for CC(CO)(CO)n1cc(C(=O)c2cncc(NC(=O)Cc3ccc(C(F)(F)F)cc3)c2)c2cncnc21 [Example 236] : 25.2

Consider COCC(C)(C)n1cc(C(=O)c2cncc(NC(=O)Cc3ccc(F)cc3)c2)c2cncnc21 [Example 539] . Its measured IC50 is 4.08

a: COc1nc(C(=O)Nc2cncc(C(=O)c3cn(C(C)C)c4ncncc34)c2)cn2ccnc12 [Example 435]
b: CC(C)n1cc(C(=O)c2cncc(NC(=O)Cc3ccc(C#N)cn3)c2)c2cnc(N)nc21 [Example 255]
Request: Of a and b , which carries the smaller reported IC50 figure? API: response body contains the label of the selected item.
Response: b

a: O=C(Cc1ccc2cccnc2c1)Nc1cncc(C(=O)c2cn(C3COC3)c3ncncc23)c1 [Example 222]
b: CC(C)n1cc(C(=O)c2cncc(NC(=O)c3cnc4[nH]cnc4c3)c2)c2cncnc21 [Example 487]
Request: Please compare: a and b . Report which one has the smaller IC50 value. // caller expects the label of the chosen entry
Response: a

====

# STUDY SYSTEM: UniProt P04629
# RUN DESCRIPTION: Isolated TRK enzyme assay (HTRF KinEASE-TK), TRKA
# Format: biochemical
# CONDITION LABEL: read-out: Trka enzyme (IC50)
pIC50: −log10 of the molar value.
MEASUREMENT LABEL: pIC50

1: CC(C)n1cc(C(=O)c2cncc(NC(=O)Cc3ccc(Cl)cn3)c2)c2cnc(N)nc21 [Example 242]
2: CC(C)n1cc(C(=O)c2cncc(NC(=O)Cn3cc4cc(F)ccc4n3)c2)c2cncnc21 [Example 94]
3: CC(C)n1cc(C(=O)c2cncc(NC(=O)Cc3ccc(C(=O)c4ccccc4)cc3)c2)c2cncnc21 [Example 289]
4: Cn1cc(C(=O)c2cncc(NC(=O)Cc3ccc4c(c3)CCO4)c2)c2cncnc21 [Example 189]
Request: Sort by pIC50, descending. As an answer, provide the labels arranged in the order called for.
Response: 1, 2, 4, 3

====

# STUDY SYSTEM: TRKA (Homo sapiens (Human))
# RUN DESCRIPTION: Isolated TRK enzyme assay (HTRF KinEASE-TK), TRKA
# Format: biochemical
# CONDITION LABEL: read-out: Trka enzyme (IC50)
MEASUREMENT LABEL: IC50 (nM)

// solved cases for IC50 follow
response.value for CC(C)n1cc(C(=O)c2cncc(NC(=O)Cc3c[nH]c4c(Cl)cccc34)c2)c2cncnc21 [Example 148] (field: IC50) = 93.4

The reported value for COCc1cc(C(=O)Nc2cncc(C(=O)c3cn(C(C)C)c4ncncc34)c2)nn1C [Example 481] in terms of IC50 is 313

IC50 in this record for CC(C)n1cc(C(=O)c2cncc(NC(=O)Nc3cc(C4CC4)nn3-c3cnn(C)c3)c2)c2cncnc21 [Example 526] : 1.51

a: O=C(Cc1ccc(Cl)cc1)Nc1cncc(C(=O)c2cn(C(CO)CO)c3ncncc23)c1 [Example 270]
b: O=C(Cc1ccc2cccnc2c1)Nc1cncc(C(=O)c2cn(C(CO)CO)c3ncncc23)c1 [Example 272]
Request: // which entry reports the smaller IC50, a or b ? # respond with the chosen item's label
Response: a

====

# STUDY SYSTEM: TRKA (Homo sapiens (Human), UniProt P04629)
# RUN DESCRIPTION: Isolated TRK enzyme assay (HTRF KinEASE-TK), TRKA
# Type: biochemical
# CONDITION LABEL: isolated TRKA enzyme; read-out: TrkA enzyme potency
pIC50: −log10 of the molar value.
MEASUREMENT LABEL: pIC50

Worked examples, 3 compounds total:
The compound listed as `C[C@@H](CO)n1cc(C(=O)c2cncc(NC(=O)Cc3ccc(Cl)cn3)c2)c2cncnc21` shows pIC50 equal to 7.89

Record summary for `C[C@@H](CO)n1cc(C(=O)c2cncc(NC(=O)Cc3ccc(Cl)cc3)c2)c2cncnc21` : reported pIC50 = 8.48

// sample CC(CO)n1cc(C(=O)c2cncc(NC(=O)Cc3ccc(C(F)(F)F)cc3)c2)c2cnc(N)nc21 (single isomer, unassigned) [Example 36] , its pIC50 was 8.35

a: CC(C)(CO)n1cc(C(=O)c2cncc(NC(=O)Cc3ccc(Cl)cc3)c2)c2cncnc21
b: CC(C)(C)n1cc(C(=O)c2cncc(NC(=O)Cn3ccc(C(F)(F)F)n3)c2)c2cncnc21
Request: Parameter metric = pIC50. Return the lower-valued option from a and b . Lab note: record the label of whichever item you select.
Response: a

====

# STUDY SYSTEM: TRKA (Homo sapiens (Human), UniProt P04629)
# RUN DESCRIPTION: Isolated TRK enzyme assay (HTRF KinEASE-TK), TRKA
# Assay type: biochemical
# CONDITION LABEL: read-out: Trka enzyme (IC50)
MEASUREMENT LABEL: IC50 (µM)

Value of measured IC50 for the entry `CC(C)n1cc(C(=O)c2cncc(NC(=O)c3cnc4cn[nH]c4c3)c2)c2cncnc21` : 1.35

Documented IC50 of `CC(C)n1cc(C(=O)c2cncc(NC(=O)c3ncccc3Cl)c2)c2cncnc21` : 2.57

Entry `Cc1ccnc(C(=O)Nc2cncc(C(=O)c3cn(C(C)C)c4ncncc34)c2)c1` , IC50 reported as 0.165

1: Cn1cc(C(=O)c2cncc(NC(=O)Cc3ccc(F)c(F)c3)c2)c2cncnc21
2: CC(C)n1cc(C(=O)c2cncc(NC(=O)Cn3ccc(C(F)(F)F)n3)c2)c2cncnc21
Request: Min IC50? 1 | 2 Reply briefly: the label of your chosen item.
Response: 2
(2: 0.00486 µM, 1: 0.835 µM)

====

# STUDY SYSTEM: TRKA (Homo sapiens (Human), UniProt P04629)
# RUN DESCRIPTION: Isolated TRK enzyme assay (HTRF KinEASE-TK), TRKA
# Format: biochemical
# CONDITION LABEL: read-out: Trka enzyme (IC50)
pIC50: −log10 of the molar value.
MEASUREMENT LABEL: pIC50

Observe how each entry below is paired with its result.
# pIC50 measured on TRKA (Homo sapiens (Human), UniProt P04629) for item CN(c1ccc(CC(=O)Nc2cncc(C(=O)c3cn(C(C)(C)CO)c4nc(N)ncc34)c2)cc1)S(C)(=O)=O [Example 557] = 8.02

Form: item CC(C)(CO)n1cc(C(=O)c2cncc(NC(=O)Cc3ccc(OC(F)F)cc3)c2)c2cnc(N)nc21 [Example 565] ; test system TRKA (Homo sapiens (Human), UniProt P04629); pIC50: 7.75

Observed pIC50 on TRKA (Homo sapiens (Human), UniProt P04629), entry CC(C)n1cc(C(=O)c2cncc(NC(=O)c3ccc(Cl)cn3)c2)c2cncnc21 [Example 466] , equals 6.40

Reported pIC50 (TRKA (Homo sapiens (Human), UniProt P04629)) for entry CS(=O)(=O)c1cccc(CC(=O)Nc2cncc(C(=O)c3cn(C45CC(C4)C5)c4nc(N)ncc34)c2)c1 [Example 579] is 8.09

Readout pIC50 for CC(CO)(CO)n1cc(C(=O)c2cncc(NC(=O)c3ccc(C(F)(F)F)c(F)c3)c2)c2cncnc21 [Example 265] , test system TRKA (Homo sapiens (Human), UniProt P04629), was 7.16

a: CC(C)n1cc(C(=O)c2cncc(NC(=O)Cc3nn(C)c4ccc(Cl)cc34)c2)c2cncnc21 [Example 124]
b: CC(C)n1cc(C(=O)c2cncc(NC(=O)c3cnc4nccn4c3)c2)c2cncnc21 [Example 495]
c: CC(C)n1cc(C(=O)c2cncc(NC(=O)Cc3cn4cc(Cl)sc4n3)c2)c2cncnc21 [Example 371]
d: CC(CO)(CO)n1cc(C(=O)c2cncc(NC(=O)Cc3cccc(C(F)(F)F)c3)c2)c2cncnc21 [Example 238]
e: Cc1ccc(CC(=O)Nc2cncc(C(=O)c3cn(C(C)(C)CO)c4nc(N)ncc34)c2)nc1 [Example 556]
Request: // sort entries: pIC50, high to low In your reply, arrange the labels in the requested order.
Response: e, d, c, a, b
